Exercise: state measured MIC for each of the molecules provided.
test system: Bacteria; assay: Inhibition of bacterial VIM2 expressed in Escherichia coli DH10B assessed as potentiation of cefazolin-induced antibacterial activity by measuring cefazolin MIC at 32 ug/ml after 16 hrs by broth micro-dilution method (reference value: 512 ug/ml)
Answers are plain numbers, in µg/mL.

Give MIC for each of the items listed below.
1. O=C(O)CN1C(=O)/C(=C/c2ccc(Cl)cc2Cl)SC1=S
2. O=C(O)c1ccc(N2C(=O)/C(=C/c3ccco3)SC2=S)cc1
3. O=C(O)c1ccc(N2C(=O)/C(=C/c3ccccn3)SC2=S)cc1
4. O=C(O)c1ccc(N2C(=O)/C(=C/c3ccc4ccccc4c3)SC2=S)cc1
5. O=C(O)c1ccc(N2C(=O)/C(=C/c3ccccc3[N+](=O)[O-])SC2=S)cc1
6. O=C(O)c1ccc(N2C(=O)/C(=C/c3ccc([N+](=O)[O-])cc3[N+](=O)[O-])SC2=S)cc1
7. O=C(O)CN1C(=O)/C(=C/c2ccc(F)cc2)SC1=S
8. O=C(O)c1ccc(N2C(=O)/C(=C/c3cccc4ccccc34)SC2=S)cc1

OUT:
[256, 512, 128, 128, 128, 128, 256, 512]

IN: Reported MIC for O=C(O)CN1C(=O)/C(=C/c2ccc(Cl)cc2)SC1=S : what is it?
OUT: 512

* * *

system: Bacteria; test: Inhibition of bacterial L1 expressed in Escherichia coli DH10B assessed as potentiation of cefazolin-induced antibacterial activity by measuring cefazolin MIC at 32 ug/ml after 16 hrs by broth micro-dilution method (reference value: 32 ug/ml)
metric-name: MIC (µg/mL)
Numbers only, in µg/mL.

O=C(O)CN1C(=O)/C(=C/c2ccccn2)SC1=S; 8

State the recorded MIC for every item in the following list.
1. COc1ccc(/C=C2\SC(=S)N(c3ccc(C(=O)O)cc3)C2=O)cc1
2. O=C(O)CN1C(=O)/C(=C/c2ccccc2[N+](=O)[O-])SC1=S

OUT:
1. 4
2. 4

* * *

system: Bacteria; assay: Inhibition of bacterial ImiS expressed in Escherichia coli DH10B assessed as potentiation of imipenem-induced antibacterial activity by measuring imipenem MIC at 32 ug/ml after 16 hrs by broth micro-dilution method (reference value: 2 ug/ml)
Kindly state MIC for each of the entries shown.
Answers are plain numbers, in µg/mL.

Examples with answers:
O=C(O)CN1C(=O)/C(=C/c2cccc3ccccc23)SC1=S; 1
O=C(O)c1ccc(N2C(=O)/C(=C/c3cccc4ccccc34)SC2=S)cc1; 1
O=C(O)c1ccc(N2C(=O)/C(=C/c3ccccn3)SC2=S)cc1; 2
O=C(O)CN1C(=O)/C(=C/c2ccc3ccccc3c2)SC1=S; 2

IN: What value of measured MIC is listed for O=C(O)CN1C(=O)/C(=C/c2cccs2)SC1=S ?
OUT: 2

* * *

Exercise: state measured MIC for each of the molecules provided.
tested on: Bacteria; assay: Inhibition of bacterial ImiS expressed in Escherichia coli DH10B assessed as potentiation of imipenem-induced antibacterial activity by measuring imipenem MIC at 32 ug/ml after 16 hrs by broth micro-dilution method (reference value: 2 ug/ml)
Answers are plain numbers, in µg/mL.

Here are 3 molecules together with their reported answers.
O=C(O)c1ccc(N2C(=O)/C(=C/c3ccccc3)SC2=S)cc1; 1
O=C(O)CN1C(=O)/C(=C/c2ccccc2)SC1=S; 2
O=C(O)c1ccc(N2C(=O)/C(=C/c3ccc(Cl)cc3Cl)SC2=S)cc1; 1

Each molecule below has a reported value. Please supply its MIC.
1. O=C(O)CN1C(=O)/C(=C/c2ccccn2)SC1=S
2. O=C(O)c1ccc(N2C(=O)/C(=C/c3ccc(Cl)cc3)SC2=S)cc1
3. O=C(O)c1ccc(N2C(=O)/C(=C/c3ccco3)SC2=S)cc1
4. O=C(O)c1ccc(N2C(=O)/C(=C/c3ccc4ccccc4c3)SC2=S)cc1
5. O=C(O)c1ccc(N2C(=O)/C(=C/c3ccc([N+](=O)[O-])cc3[N+](=O)[O-])SC2=S)cc1
6. COc1ccc(/C=C2\SC(=S)N(CC(=O)O)C2=O)cc1
7. O=C(O)CN1C(=O)/C(=C/c2ccccc2[N+](=O)[O-])SC1=S

OUT:
1: 2; 2: 1; 3: 1; 4: 1; 5: 1; 6: 2; 7: 2
